test system: HCT-116 colon; experiment: NCI-60 one-dose screen, 48 h; details: 10 µM unless noted
About 83,000 compounds went through this panel and 20% of them were active in at least one assay; those are over-represented in the sample as a whole. Activity calls are given as the source filed them. The calls were made as follows: active = growth percent below 10; inactive = the rest.
Respond only with the outcome that fits, drawn from active, inactive

Enquiry: Name the outcome recorded for CN(C)CCCC1(c2ccc(F)cc2)OCc2cc(-c3csc4ccccc34)ccc21 (configuration not stated) in the assay.
Return: active

Enquiry: Name the outcome recorded for Cc1c(C(C)(C)O)cn2ncnc(Oc3ccc(NC(=O)Nc4ccc(Cl)c(C(F)(F)F)c4)c(F)c3)c12 in the assay.
Return: inactive

Enquiry: Name the outcome recorded for O=C(Nc1cc(Cl)ccc1O)c1ccccc1Nc1ccnc(C(F)(F)F)c1 in the assay.
Return: active

Enquiry: Name the outcome recorded for N=C(N)c1ccc(-c2ccc(-c3cc(Cl)cc(Cl)c3)s2)s1 in the assay.
Return: active

Enquiry: Name the outcome recorded for C=C[C@@]1(C)CC(=O)[C@@H](C(C)(C)c2cn(C)c3ccc(Br)cc23)C[C@@H]1O[Si](C)(C)C(C)(C)C in the assay.
Return: inactive

Enquiry: Name the outcome recorded for COc1ccc(N=C2NN=C(c3c[nH]c4ccccc34)CS2)cc1OC in the assay.
Return: inactive

Enquiry: Name the outcome recorded for O=C1CCCCN1c1ccc(C2=NCCCN2)cc1 in the assay.
Return: inactive

Enquiry: Name the outcome recorded for COc1cc(/C=C/C(=O)c2cc(OC)c(OC)c(OC)c2)ccc1Oc1nc2c(c(=O)n(C)c(=O)n2C)n1C in the assay.
Return: active

Enquiry: Name the outcome recorded for COc1ccc(C2CC(n3ccnc3)c3cc(OC)c(OC)c(OC)c32)cc1O (configuration not stated) in the assay.
Return: inactive

Enquiry: Name the outcome recorded for O=C1CCC(C(=O)N/N=C/c2cc(F)ccc2F)N1 (configuration not stated) in the assay.
Return: inactive

Enquiry: Name the outcome recorded for Cc1ccc(S(=O)(=O)c2nc(-c3ccccc3)oc2SCC(N)=O)cc1 in the assay.
Return: inactive

Enquiry: Name the outcome recorded for COC(=O)Cn1c2c(c3c(OC)cccc31)C(=O)c1ccccc1-2 in the assay.
Return: inactive

Enquiry: Name the outcome recorded for CCCC(O)Cn1ncc(C(=O)OCC)c1NC(=O)NCc1cccc(C(F)(F)F)c1 (configuration not stated) in the assay.
Return: inactive

Enquiry: Name the outcome recorded for CN(C)CCCn1c2c(c3ccncc3c1=O)C(=O)c1ccccc1-2 in the assay.
Return: active

Enquiry: Name the outcome recorded for Nc1cc(-c2ccc(Cl)cc2)nn1-c1nnc(/C=C/c2ccco2)c(=O)[nH]1 in the assay.
Return: inactive

Enquiry: Name the outcome recorded for Cc1ccccc1N1CCN(C(=S)c2ccccc2)CC1 in the assay.
Return: inactive

Enquiry: Name the outcome recorded for OC1CSSC1Cn1cnc2c(Nc3ccc(OCc4cccc(F)c4)c(Cl)c3)ncnc21 (configuration not stated) in the assay.
Return: active

---

tested on: MALME-3M melanoma; assay: NCI-60 one-dose screen, 48 h; settings: 10 µM unless noted
About 83,000 compounds went through this panel and 20% of them were active in at least one assay; those are over-represented in the sample as a whole. Calls of active or inactive are those of the source. How the source made its calls: active means growth percent below 10; inactive means the rest.
Respond only with the outcome that fits, drawn from active, inactive

Enquiry: Name the outcome recorded for O=C(Nc1ccc(Oc2cccc(Cl)c2)c(Cl)c1)c1cccnn1 in the assay.
Return: inactive

Enquiry: Name the outcome recorded for CC(C)(C)CC(C)(C)Nc1c(-c2c(O)c3ccccc3oc2=O)nc2sc3ccccc3n12 in the assay.
Return: inactive

Enquiry: Name the outcome recorded for CCCN(CCSSCCNc1nc(N(C)O)nc(N(C)O)n1)c1nc(N(C)O)nc(N(C)O)n1 in the assay.
Return: inactive

Enquiry: Name the outcome recorded for Cc1c(C(C)(C)O)cn2ncnc(Oc3ccc(NC(=O)Nc4ccc(Cl)c(C(F)(F)F)c4)c(F)c3)c12 in the assay.
Return: inactive

Enquiry: Name the outcome recorded for CC1=C(Cl)C(=O)c2cc(C)ccc2C1=O in the assay.
Return: inactive

Enquiry: Name the outcome recorded for Cn1c2ccccc2c2c3c(c4c5cc(Br)ccc5n(C)c4c21)C(=O)N(O)C3=O in the assay.
Return: inactive

Enquiry: Name the outcome recorded for Nc1ncnc2c1N=C(c1ccc(F)cc1)CC(c1cccc(Nc3ccnc4cc(Cl)ccc34)c1)N2 (stereo not drawn) in the assay.
Return: inactive

Enquiry: Name the outcome recorded for CCN(CC)c1ccc(-c2cc(-c3cc(OC)c(OC)c(OC)c3)nc(N3CCC(O)CC3)c2C#N)cc1 in the assay.
Return: active

Enquiry: Name the outcome recorded for O=S(=O)(Nc1ccc2ccccc2c1)c1ccc(-c2cnc(C3CC3)o2)cc1 in the assay.
Return: inactive

Enquiry: Name the outcome recorded for O=C(CN1C(=O)S/C(=C\C(Cl)=C\c2ccccc2)C1=O)NC1CCS(=O)(=O)C1 (stereo not drawn) in the assay.
Return: inactive

Enquiry: Name the outcome recorded for O=C(Nc1cccnc1Nc1ccccc1)c1cn(Cc2cccc(Oc3ccccc3)c2)nn1 in the assay.
Return: inactive

Enquiry: Name the outcome recorded for Cn1c(=O)c2[nH]c(SC/C(=N/O)c3ccc(Br)cc3)nc2n(C)c1=O in the assay.
Return: inactive

Enquiry: Name the outcome recorded for C=C1C(=O)O[C@H]2[C@H]1CC/C(COC(=O)NCc1ccc(Cn3c(=O)sn(-c4ccccc4)c3=O)cc1)=C\CC[C@@]1(C)O[C@@H]21 in the assay.
Return: active

Enquiry: Name the outcome recorded for COC(=O)[C@@]1(C)CC[C@]2(C)CC[C@]3(C)C4=CC=C5C(=CC(=O)C(O)=C5C)[C@]4(C)[C@@H](O)C[C@@]3(C)[C@@H]2C1 in the assay.
Return: active

Enquiry: Name the outcome recorded for COC1/C=C/OC2(C)Oc3c(C)c(O)c4c(O)c(c(/C=N/N(c5ccccc5)c5ccccc5)c(O)c4c3C2=O)NC(=O)C(C)=C/C=C/C(C)C(O)C(C)C(O)C(C)C(OC(C)=O)C1C (stereo not drawn) in the assay.
Return: inactive

Enquiry: Name the outcome recorded for COc1ccc(C2[C@@H](Cl)C(=O)N2c2cc(OC)c(OC)c(OC)c2)cc1Cl (stereo partly drawn) in the assay.
Return: inactive

Enquiry: Name the outcome recorded for O=CCCCOCc1ccccc1 in the assay.
Return: inactive

Enquiry: Name the outcome recorded for CN(C)CCCn1c2c(c3ccncc3c1=O)C(=O)c1ccccc1-2 in the assay.
Return: active

Enquiry: Name the outcome recorded for O=c1cc(CP(=O)(O)O)c2cc(O)c(-c3ccccc3)cc2o1 in the assay.
Return: inactive

Enquiry: Name the outcome recorded for CC1(/C=C/c2ccc(-c3ccccc3)cc2)CCn2cnc3ncnc(c32)N1O (stereo not drawn) in the assay.
Return: inactive

Enquiry: Name the outcome recorded for N=C(N)c1ccc(-c2ccc(-c3ccccc3)o2)o1 in the assay.
Return: inactive

Enquiry: Name the outcome recorded for COC12C=C/C(=C(/C(=O)OCc3cncnc3)C(=O)CCCCCCCCC3(OC)C=C/C(=C(/C(=O)OCc4cncnc4)C(=O)CCCCCCCC1)O3)O2 in the assay.
Return: active

Enquiry: Name the outcome recorded for Cc1nn(C)c2ncnc(N/N=C/c3cccc(O)c3O)c12 in the assay.
Return: active

---

tested on: SR leukemia; experiment: NCI-60 one-dose screen, 48 h; details: 10 µM unless noted
This is part of a sample that, as a whole, favours compounds with a hit. Of some 83,000 tested, about 20% had one in any assay. Active and inactive are the calls of the source. Rule for the calls: active = growth percent below 10; inactive = the rest.
Respond only with the outcome that fits, drawn from true (1) = active, false (0) = inactive

Enquiry: Name the outcome recorded for CCN1C(=O)N(CC)C2C1NN=c1s/c(=C\c3ccc(OC)cc3)c(=O)n12 (stereo unspecified) in the assay.
Return: false (0)

Enquiry: Name the outcome recorded for CCCCCCCCn1ccc2cc(NC(=O)CN3CCN(c4cc(C)nc(Cl)n4)CC3)ccc21 in the assay.
Return: false (0)

Enquiry: Name the outcome recorded for COc1cc2c(c(OC)c1OC)C(=O)CC(c1cccc(C(=O)Nc3ccccc3Br)c1)O2 (stereo unspecified) in the assay.
Return: false (0)

Enquiry: Name the outcome recorded for Nc1cc(C(=O)O)cc(-n2c(O)c(C=C3N=c4ccccc4=N3)sc2=S)c1 in the assay.
Return: false (0)

Enquiry: Name the outcome recorded for CCCCC#Cc1c(I)n(C2OC(CO[Si](C)(C)C(C)(C)C)C3OC(C)(C)OC32)c(=O)n(C(=O)c2ccccc2)c1=O (stereo unspecified) in the assay.
Return: true (1)

Enquiry: Name the outcome recorded for O=C1/C(=C/c2ccc(Cl)cc2)CN(C(=O)C(Cl)Cl)C/C1=C\c1ccc(Cl)cc1 in the assay.
Return: true (1)

Enquiry: Name the outcome recorded for CC1(C)CC[C@]23CC[C@]4(C)[C@H](CC[C@@H]5[C@@]6(C)CCNCC(C)(C)[C@@H]6CC[C@]54C)[C@H]2[C@H]1OC3 in the assay.
Return: true (1)

Enquiry: Name the outcome recorded for COc1cc2ncnc(Nc3ccc(F)c(Cl)c3)c2cc1OCC(=O)N1CCOCC1 in the assay.
Return: false (0)

Enquiry: Name the outcome recorded for O=C1CCC(C(=O)N/N=C/c2cc(F)ccc2F)N1 (stereo unspecified) in the assay.
Return: false (0)

Enquiry: Name the outcome recorded for CC1(C)CC[C@]2(CO)CC[C@]3(C)[C@](O)([C@H](O)C[C@@H]4[C@@]5(C)CCCNC(C)(C)[C@@H]5CC[C@]43C)[C@@H]2C1 in the assay.
Return: true (1)

Enquiry: Name the outcome recorded for Cc1ccc2c(/C=C/C(=O)c3cc(CN4CCOCC4)c(O)c4nc(C)ccc34)cc(CN3CCOCC3)c(O)c2n1 in the assay.
Return: true (1)

Enquiry: Name the outcome recorded for Nc1nc(N(Cc2ccccc2)c2ccccc2)c2cn[nH]c2n1 in the assay.
Return: true (1)

Enquiry: Name the outcome recorded for O=C1/C(=C/c2c[nH]c(=O)[nH]c2=O)SC(=S)N1Cc1ccccc1 in the assay.
Return: false (0)

Enquiry: Name the outcome recorded for O=C1C=CC2(O)OC/C(=C\c3ccccc3)C(O)=C2C1=O (stereo unspecified) in the assay.
Return: true (1)

Enquiry: Name the outcome recorded for O=c1c2ccccc2n(C[C@H]2CO2)c2ccccc12 in the assay.
Return: true (1)

Enquiry: Name the outcome recorded for c1ccc(-c2ccc3c(c2)C2(CCNCC2)CN3)cc1 in the assay.
Return: false (0)

Enquiry: Name the outcome recorded for O=c1cc(CNc2cc(F)cc(F)c2)c2ccc(I)cc2[nH]1 in the assay.
Return: true (1)

Enquiry: Name the outcome recorded for CNC(=O)Nc1ccc(-c2ccc3ncnc(Nc4cccc(Cl)c4)c3c2)cc1 in the assay.
Return: false (0)

Enquiry: Name the outcome recorded for COc1cc(-c2ccc[nH]2)[nH]c1/C=C1\N=C(C)C(CC(=O)OCC(C)(C)C)=C1C in the assay.
Return: true (1)

Enquiry: Name the outcome recorded for CN(C)/C(N)=N/N=C(\c1ccccc1)c1ccccn1 in the assay.
Return: false (0)

Enquiry: Name the outcome recorded for CC1SC(c2ccccc2O)N(NC(=O)CCC(=O)c2nc3ncccc3[nH]2)C1=O (stereo unspecified) in the assay.
Return: false (0)

Enquiry: Name the outcome recorded for COc1ccc(-c2cc(C(=O)N3N=C(c4ccc(N)cc4)CC3c3ccc(Cl)cc3)c3ccccc3n2)cc1 (stereo unspecified) in the assay.
Return: false (0)

Enquiry: Name the outcome recorded for C[C@@H]1NC(=O)[C@H](Cc2ccccc2)N(Cc2cccnc2)C1=O in the assay.
Return: false (0)

Enquiry: Name the outcome recorded for COc1ccc2cc(C(=O)N3CCC([C@@H](C)C(=O)NCc4ccc5c(c4)OCO5)CC3)[nH]c2c1 in the assay.
Return: false (0)

Enquiry: Name the outcome recorded for COc1cc2c3c(c4c5ccccc5[nH]c4c2c(OC)c1OC)C(=O)N(CCN1CCCCC1)C3=O in the assay.
Return: false (0)

Enquiry: Name the outcome recorded for Nc1c(C(=O)Nc2cccc3ncccc23)sc2nc3c(cc12)CN(Cc1ccccc1)CC3 in the assay.
Return: false (0)
